system: RXF-631 renal; assay: NCI tumour cell line growth inhibition, 48 h
property name: TGI (µM)
Provide only the numeric value, understood in µM.

- compound: "CSc1snc2sc3c(Cl)nnnc3c12"
  observed: 38.4

Query block: Kindly state the measured TGI obtained for COc1ccc(/C=C2\CCC(CCN(C)C)(C3=CCCC3)C2=O)cc1Br (stereo not given) with RXF-631 renal.
Result block: 31.1

* * *

test system: CCRF-CEM leukemia; test: NCI tumour cell line growth inhibition, 48 h
# if value of TGI reaches 40 µM, tag 1; if it stays below, tag -1

- compound: "COc1cc2nccc(Oc3ccc(NC(=O)Nc4cc(C)on4)c(Cl)c3)c2cc1OC"
  group: 1

Query block: Quick check, TGI >= 40 µM? O=C1c2ccccc2C2C1C(c1ccccc1)C1(Cc3ccccc3C1=O)C2c1ccccc1 (stereo not given)
Result block: 1

Query block: Quick check, TGI >= 40 µM? `OC(c1ccc2c(c1)OCO2)c1ccc2c(c1)OCO2`
Result block: 1

* * *

Some compounds, each annotated with its measured TGI.
system: SK-MEL-2 melanoma; test: NCI tumour cell line growth inhibition, 48 h

# count of solved cases: 4
- compound: "COC(=O)c1cc2c3ccccc3[nH]c2c2sccc12"
  TGI: "> 100 µM"
- compound: "Cc1ccc(NC(=O)CSc2nnc3n(Cc4ccccc4)c(=O)c4c(C)c(C(N)=O)sc4n23)cc1"
  TGI: "43.3 µM"
- compound: "CCCCCCCCCC(=O)OCC1OC(n2cc(F)c(=O)[nH]c2=O)C(NC(=O)OCc2ccccc2)C(OC(=O)CCCCCCCCC)C1O (stereo not given)"
  TGI: "> 100 µM"
- compound: "O=C(N/N=C/c1ccc([N+](=O)[O-])cc1)Nc1ccc(Br)cc1"
  TGI: "> 100 µM"

Now let's try a different one.
Query block: # get_value(readout='TGI', item= Nc1ccc(-c2cccs2)cc1NC(=O)c1ccc(CCCC(=O)Nc2ccc(C3CC3N)cc2)cc1 (stereo not given) )
Result block: > 100 µM

* * *

system: NCI-H522 lung; assay: NCI tumour cell line growth inhibition, 48 h
Some compounds, each annotated with its measured GI50.

# count of solved cases: 8
- compound: "CC(CN(C)C)Oc1ccccc1NC1=C(Cl)C(=O)C(Nc2ccccc2OC(C)CN(C)C)=C(Cl)C1=O (centres undefined)"
  GI50: "157 nM"
- compound: "Cc1ccc(NC(=O)CSc2nnc3n(Cc4ccccc4)c(=O)c4c(C)c(C(N)=O)sc4n23)cc1"
  GI50: "3850 nM"
- compound: "CN1CCN(c2ccc(NC(=O)c3cncnc3Nc3ccc(OCc4ccccn4)c(Cl)c3)cc2)CC1"
  GI50: "4480 nM"
- compound: "Cc1cc(N2CCOCC2)nc(N(CCCNc2ccnc3cc(Cl)ccc23)Cc2ccco2)n1"
  GI50: "2690 nM"
- compound: "COC(=O)c1cc2c3ccccc3[nH]c2c2sccc12"
  GI50: "17200 nM"
- compound: "CC([C@H]1CCC2C3CCC4C[C@@H](N)CC[C@]4(C)C3CC[C@@]21C)N(C)C (some centres undefined)"
  GI50: "7250 nM"
- compound: "CCN(CC)C(=S)SCN1C(=O)c2ccccc2S1(=O)=O"
  GI50: "391 nM"
- compound: "Oc1c(Cl)cc(Cl)cc1C(c1cc(Cl)cc(Cl)c1O)C(Cl)(Cl)Cl"
  GI50: "964 nM"

Now let's try a different one.
Query block: # get_value(readout='GI50', item= `CCn1c(-c2nonc2N)nc2c(C#CC(C)(C)O)ncc(OC[C@H]3CCCNC3)c21` )
Result block: 12200 nM
